Quick reference for OD450 among some binders
# Target or test system: T1, human MSLN-R3-his protein (human, UniProt Q13421 487-598)
# T1 construct: it is put last here; also called human MSLN-R3 protein; hMSLN-R3-his; not shown: His tag
# T1 sequence (Q13421 495-606): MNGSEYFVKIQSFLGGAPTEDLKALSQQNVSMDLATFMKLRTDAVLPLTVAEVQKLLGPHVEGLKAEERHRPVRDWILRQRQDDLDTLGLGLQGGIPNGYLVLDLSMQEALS
# Protocol notes: ELISA on coated antigen, antibody 0.002 nM
Measurement kind: OD450 (OD)

1. Tab106 (YP218, hIgG1) (antibody, V domains shown, Control antibody; YP218 VH and VL recombined into human IgG1 CH and CL expression vectors; also called YP218 human IgG1 antibody) VH: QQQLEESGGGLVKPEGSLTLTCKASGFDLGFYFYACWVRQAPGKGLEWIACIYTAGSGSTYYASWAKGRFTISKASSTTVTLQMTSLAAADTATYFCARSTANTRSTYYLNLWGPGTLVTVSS VL: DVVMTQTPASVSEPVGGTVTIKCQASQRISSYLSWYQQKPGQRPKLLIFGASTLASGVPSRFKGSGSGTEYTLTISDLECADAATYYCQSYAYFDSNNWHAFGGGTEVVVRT :: 0.65
2. S009-F7.26.15 (antibody, human IgG1, kappa, V domains shown, Human-murine chimeric antibody, human IgG1 heavy and kappa light constant regions) VH: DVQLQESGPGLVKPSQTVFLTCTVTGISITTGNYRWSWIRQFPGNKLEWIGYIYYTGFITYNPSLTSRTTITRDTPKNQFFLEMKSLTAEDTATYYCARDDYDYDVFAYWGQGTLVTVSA VL: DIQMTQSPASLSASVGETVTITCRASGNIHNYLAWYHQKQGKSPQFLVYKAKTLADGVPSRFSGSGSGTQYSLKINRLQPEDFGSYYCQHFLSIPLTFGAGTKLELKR :: 0.6
3. S009-F7.21.16 (antibody, human IgG1, kappa, V domains shown, Human-murine chimeric antibody, human IgG1 heavy and kappa light constant regions) VH: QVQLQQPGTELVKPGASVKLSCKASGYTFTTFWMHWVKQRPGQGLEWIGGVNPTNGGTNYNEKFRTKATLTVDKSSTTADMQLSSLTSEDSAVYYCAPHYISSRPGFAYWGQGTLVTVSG VL: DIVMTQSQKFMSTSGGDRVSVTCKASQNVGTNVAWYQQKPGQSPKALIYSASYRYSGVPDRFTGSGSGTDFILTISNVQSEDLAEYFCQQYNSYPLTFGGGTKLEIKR :: 0.71
